Origin of measurements: the DeepSol protein solubility set

- EXPERIMENT: soluble on expression in E. coli; label from the status in PepcDB or PDB records

- SEQUENCE_DATA: "SLQKEANKTYHSSLKDGKLILLLDLDNTLLQATSFAKFNMELPLENFVDDNGEAELYKFYLPQYNFFYYLKFRPYVRQFLQILSLYYELAIYTNATREYADVVIAILDPDRTIFSDRIVARCSSTDRDENKYFSRIYPNVDPKYVIAFDDRKDVWIDIPQSHILKAEHYNFFELSKYDIIS"
  soluble on expression in E. coli: "not soluble"
- SEQUENCE_DATA: "MGSDKIHHHHHHLKVIAIGDNVVDLYPADKQMYLGGHAANTAVFAAELGLQAAYIGTFGNDARGDFARRMLVERGVDVQHSLQYVGRNAFTTITGKDGARRKVVGEPPQELRLDPEDIAYINSFDLVYLNSESHADAFLQAITARKVYDFSILDDDKLFKKIAPQIDLAYLSGKARSDDDVEALMRRVAAAGCDRIVCSRGLRGSAALVDGMMSWQQALGVKAVDSLGAGDAYITSFAATLYSSSKPTLDAKVSESLSHAAKFASAQVLLPGSFGHGAPLIS"
  soluble on expression in E. coli: "not soluble"
